Molecular target: Epidermal growth factor receptor (Homo sapiens) (UniProt P00533)
Sequence (P00533 whole entry, looked up): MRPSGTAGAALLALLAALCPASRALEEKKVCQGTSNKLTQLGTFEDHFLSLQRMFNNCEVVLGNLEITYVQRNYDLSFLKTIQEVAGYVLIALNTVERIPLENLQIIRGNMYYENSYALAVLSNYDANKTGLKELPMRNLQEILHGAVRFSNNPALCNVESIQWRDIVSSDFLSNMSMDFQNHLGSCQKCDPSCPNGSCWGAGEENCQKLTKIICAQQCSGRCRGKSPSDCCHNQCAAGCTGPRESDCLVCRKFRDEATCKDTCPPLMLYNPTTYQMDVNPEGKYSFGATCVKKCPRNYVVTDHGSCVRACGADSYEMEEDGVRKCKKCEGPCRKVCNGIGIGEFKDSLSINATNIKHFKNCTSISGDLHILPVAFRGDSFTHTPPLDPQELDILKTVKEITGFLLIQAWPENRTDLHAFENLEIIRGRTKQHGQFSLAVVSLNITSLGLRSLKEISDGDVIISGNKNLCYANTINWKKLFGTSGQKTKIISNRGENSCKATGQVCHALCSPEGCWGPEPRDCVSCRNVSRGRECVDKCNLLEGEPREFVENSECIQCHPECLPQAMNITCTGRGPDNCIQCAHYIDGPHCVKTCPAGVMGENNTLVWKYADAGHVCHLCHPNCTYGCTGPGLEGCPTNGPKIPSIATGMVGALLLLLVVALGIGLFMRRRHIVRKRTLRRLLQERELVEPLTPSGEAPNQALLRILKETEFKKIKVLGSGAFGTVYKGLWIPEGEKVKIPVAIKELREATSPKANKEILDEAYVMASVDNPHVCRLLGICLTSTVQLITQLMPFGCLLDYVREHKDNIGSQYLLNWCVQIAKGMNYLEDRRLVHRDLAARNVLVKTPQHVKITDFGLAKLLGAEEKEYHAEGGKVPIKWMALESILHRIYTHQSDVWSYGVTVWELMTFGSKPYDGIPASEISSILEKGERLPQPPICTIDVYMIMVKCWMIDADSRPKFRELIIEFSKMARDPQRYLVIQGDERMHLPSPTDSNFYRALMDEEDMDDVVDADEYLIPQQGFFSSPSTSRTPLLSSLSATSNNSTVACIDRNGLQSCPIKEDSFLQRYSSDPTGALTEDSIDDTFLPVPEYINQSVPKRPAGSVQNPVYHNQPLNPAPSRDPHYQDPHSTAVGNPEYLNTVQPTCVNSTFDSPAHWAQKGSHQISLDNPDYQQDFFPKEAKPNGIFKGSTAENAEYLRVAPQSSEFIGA
Test: EGFR binders on small-molecule microarrays, primary screen, biochemical, small-molecule microarray, 635 nm fluorescence (AID 1104);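 note: score merges 667 nm emission intensity with spot signal to noise over triplicate slides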
Settings: EGFR binding, higher = more signal
MEASURED_PARAMETER: composite z-score

# COMPOUND, VALUE_OBSERVED
rows = [
    ("CCCCCCCCCCC(O)C1C=CC2C(=O)N(C)C(=O)C2N1Nc1cc(OC)c(OC)c(OC)c1 (configuration not stated)", -0.637),
    ("CC(C)C[C@@H]1NC(=O)CNC(=O)[C@@]23C(=O)N[C@@H](Cc4ccccc4)C2[C@H](C)[C@@]2(C)O[C@H]2C3/C=C/C/C=C\\CNC1=O (some centres not stated)", 0.366),
    ("C=C(COC)C(=O)CC[C@@H](OC(=O)c1cccnc1)c1ccccc1OCCO", -0.333),
    ("CCOC(=O)C1=C[C@@H](C(C)(C)C)N(S(=O)(=O)c2ccc(C)cc2)[C@H]1c1ccccc1", 0.591),
    ("C=C(C)[C@@H]1CC=C(C(O)C2C=CC3C(=O)N(c4ccccc4)C(=O)C3N2Nc2ccc(C#N)cc2)CC1 (some centres not stated)", 0.628),
    ("C=CCNC(=O)[C@@H]1[C@H]2C(=O)O[C@H](c3ccccc3)[C@H](c3ccccc3)N2[C@H](c2ccc(O)cc2)[C@@]12C(=O)N(C(=O)OCCOC)c1ccc(C#CCCO)cc12", 0.683),
    ("CCN(CC)c1ccc(N2CC=CC34O[C@@H]5/C=C\\CCC(C)OC(=O)C5[C@H]3C(=O)N(C(C)CO)[C@@H]4C2=O)cc1 (some centres not stated)", -0.455),
]

###

Assay: Plasmodium falciparum growth inhibition, primary screen, strain 3D7, DAPI fluorescence, 100 nL (AID 1184);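 note: parasites grown inside human red blood cells in medium with human serum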
Settings: P. falciparum 3D7 growth, 3 d, higher = more signal
Where z-score equals or exceeds -2, the correct label is label 1; where it does not, the label is label 0.

# COMPOUND, CLASS
rows = [
    ("[N-]=[N+]=NCc1ccccc1C[C@@]1(C(=O)N2CCCCC2)N=C(c2ccc(OCCCO)cc2)O[C@@H]1c1ccccc1CN=[N+]=[N-]", "label 0"),
    ("CC(C)=CCCC(C)=CC(O)C1C=CC2C(=O)N(c3ccccc3)C(=O)C2N1Nc1ccccc1F (stereo not given)", "label 1"),
    ("COCCOC(=O)N1C(=O)[C@@]2(c3cc(C#Cc4ccc(OC)cc4)ccc31)[C@H](C(=O)NC[C@H](O)c1ccccc1)[C@H]1C(=O)O[C@H](c3ccccc3)[C@H](c3ccccc3)N1[C@@H]2c1ccc(OCCO)cc1", "label 0"),
    ("CN1C(=O)C2C(C1=O)C1C=C(CCCO)C2C(C2CC2)N1Cc1cc2c(cc1Br)OCO2 (stereo not given)", "label 1"),
    ("C=C(/C(=C/C[C@@H](OC(=O)c1ccncc1)c1cccc(OCCO)c1)c1cnc2ccccc2c1)C(C)C", "label 0"),
    ("CC(C)OC(=O)CC(=O)CC(O)c1ccc([N+](=O)[O-])cc1 (stereo not given)", "label 1"),
    ("O=C1C2C=CC(C(O)c3cc(C(F)(F)F)cc(C(F)(F)F)c3)N(Nc3ccccc3F)C2C(=O)N1c1ccccc1 (stereo not given)", "label 1"),
    ("CCOC(=O)C1=C[C@@H](C(C)(C)C)N(S(=O)(=O)c2ccc(C)cc2)[C@H]1c1ccc(C)cc1", "label 0"),
    ("COc1ccc([Si](C)(C)[C@@H]2[C@@H](CCn3cc([C@H](O)c4ccccc4)nn3)O[C@]3(C(=O)N(c4ccccc4)c4ccccc43)[C@H]2C)cc1", "label 1"),
    ("COCC1=C2[C@@H](CCc3ccccc3)OB(O)C[C@@H]2[C@@H]2C(=O)N(C)C(=O)[C@@H]2C1", "label 1"),
    ("O=C1C2C=CC(C(O)C=Cc3ccc([N+](=O)[O-])cc3)N(Nc3ccccc3)C2C(=O)N1c1ccccc1 (stereo not given)", "label 1"),
    ("C=C(COC)/C(=C/C[C@H](OC(C)=O)c1cccc(OCCO)c1)c1cnc2ccccc2c1", "label 0"),
    ("CCCC=C(CCC)[C@@H](NS(=O)(=O)c1cccc2cccnc12)c1ccc(-c2ccccc2)cc1", "label 1"),
    ("[N-]=[N+]=Nc1ccccc1C[C@]1(C(=O)NCc2ccccc2)COC(c2ccc(OCCCO)cc2)=N1", "label 0"),
    ("C=CCNC(=O)[C@H]1[C@@H]2C(=O)O[C@@H](c3ccccc3)[C@@H](c3ccccc3)N2[C@@H](c2ccc(OCCO)cc2)[C@]12C(=O)Nc1ccc(C#CCNC(N)=O)cc12", "label 1"),
]
